What follows is a collection of IC50 values obtained with Collagenase 3 (Homo sapiens).
Kindly answer with a numeric value in nM, unit omitted.

// solved cases for IC50 follow
INSERT INTO assay_data (molecule, result_number) VALUES
  ('CC#CCOc1ccc(S(=O)(=O)N2Cc3ccccc3N(C(=O)c3cccnc3)CC2C(=O)NO)cc1 (stereo not given)', 19),
  ('CC#CCOc1ccc(S(=O)(=O)N2Cc3cc(N4CCOCC4)ccc3N(C(C)=O)CC2C(=O)NO)cc1 (stereo not given)', 33),
  ('CC#CCOc1ccc(S(=O)(=O)N2Cc3ccc(CO)cc3N(C(C)=O)CC2C(=O)NO)cc1 (stereo not given)', 20),
  ('CC#CCOc1ccc(S(=O)(=O)N2Cc3cc(N4CCN(C)CC4)ccc3N(C(C)=O)CC2C(=O)NO)cc1 (stereo not given)', 21);

Now, please, on to the next molecule.
Prompt: Quick check: IC50 of CC#CCOc1ccc(S(=O)(=O)N2Cc3ccc(CNC)cc3N(C(C)=O)CC2C(=O)NO)cc1 (stereo not given) ?
Response: 32

---

Target protein (sequence): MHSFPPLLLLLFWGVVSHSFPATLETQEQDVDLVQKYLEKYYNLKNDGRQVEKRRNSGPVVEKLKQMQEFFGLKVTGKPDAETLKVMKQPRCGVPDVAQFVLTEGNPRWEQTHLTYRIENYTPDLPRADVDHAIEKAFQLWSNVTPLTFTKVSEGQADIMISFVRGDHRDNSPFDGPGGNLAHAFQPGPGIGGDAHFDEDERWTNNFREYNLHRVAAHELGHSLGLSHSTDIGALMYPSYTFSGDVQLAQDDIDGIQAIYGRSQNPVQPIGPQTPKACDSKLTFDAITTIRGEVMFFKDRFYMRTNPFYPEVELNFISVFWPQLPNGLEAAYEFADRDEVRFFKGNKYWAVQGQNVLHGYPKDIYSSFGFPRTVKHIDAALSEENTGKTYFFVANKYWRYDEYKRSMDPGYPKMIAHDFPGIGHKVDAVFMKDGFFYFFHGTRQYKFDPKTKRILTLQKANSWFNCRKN
# pIC50 per entry
pIC50 is a log-scale quantity: -log10 of the concentration expressed in molar.

Prompt: Quick check: pIC50 of CC#CCOc1ccc(S(=O)(=O)N2Cc3ccccc3N(C(=O)c3cnccn3)CC2C(=O)NO)cc1 (stereo unspecified) ?
Response: 6.45

Prompt: Query CC#CCOc1ccc(S(=O)(=O)N2Cc3ccc(CO)cc3N(C(C)=O)CC2C(=O)NO)cc1 (stereo unspecified) next
Response: 6.30

Prompt: Query CC#CCOc1ccc(S(=O)(=O)N2Cc3ccc(CNC(C)=O)cc3N(C(C)=O)CC2C(=O)NO)cc1 (stereo unspecified) next
Response: 6.24

Prompt: Query CC#CCOc1ccc(S(=O)(=O)N2Cc3ccc(CN(C)C)cc3N(C(C)=O)CC2C(=O)NO)cc1 (stereo unspecified) next
Response: 6.04

Prompt: Query CC#CCOc1ccc(S(=O)(=O)N2Cc3ccccc3N(C(=O)c3cccnc3)CC2C(=O)NO)cc1 (stereo unspecified) next
Response: 6.62

---

# TARGET OR SYSTEM: Disintegrin and metalloproteinase domain-containing protein 17 (Homo sapiens)
# pIC50 per entry
pIC50 is a log-scale quantity: -log10 of the concentration expressed in molar.

// solved cases for pIC50 follow
INSERT INTO results (compound, result_number) VALUES
  ('CC#CCOc1ccc(S(=O)(=O)N2Cc3ccccc3N(C(=O)COC)CC2C(=O)NO)cc1 (configuration not stated)', 7.09),
  ('CC#CCOc1ccc(S(=O)(=O)N2Cc3cc(OCCc4ccccc4)ccc3N(C(C)=O)CC2C(=O)NO)cc1 (configuration not stated)', 7.44),
  ('CC#CCOc1ccc(S(=O)(=O)N2Cc3cc(N(C)C)ccc3N(C(C)=O)CC2C(=O)NO)cc1 (configuration not stated)', 6.71),
  ('CC#CCOc1ccc(S(=O)(=O)N2Cc3ccccc3N(C(=O)c3cccnc3)CC2C(=O)NO)cc1 (configuration not stated)', 7.05),
  ('CC#CCOc1ccc(S(=O)(=O)N2Cc3cc(N4CCN(C)CC4)ccc3N(C(C)=O)CC2C(=O)NO)cc1 (configuration not stated)', 7.04);

Prompt: Quick check: pIC50 of CC#CCOc1ccc(S(=O)(=O)N2Cc3ccc(CN4CCNCC4)cc3N(C(C)=O)CC2C(=O)NO)cc1 (configuration not stated) ?
Response: 7.85

Prompt: Query CC#CCOc1ccc(S(=O)(=O)N2Cc3ccccc3N(C(=O)c3cnccn3)CC2C(=O)NO)cc1 (configuration not stated) next
Response: 7.16

---

# TARGET OR SYSTEM: Disintegrin and metalloproteinase domain-containing protein 17 (Homo sapiens, UniProt P78536)
# Sequence (P78536 whole entry, the tested form may be a part): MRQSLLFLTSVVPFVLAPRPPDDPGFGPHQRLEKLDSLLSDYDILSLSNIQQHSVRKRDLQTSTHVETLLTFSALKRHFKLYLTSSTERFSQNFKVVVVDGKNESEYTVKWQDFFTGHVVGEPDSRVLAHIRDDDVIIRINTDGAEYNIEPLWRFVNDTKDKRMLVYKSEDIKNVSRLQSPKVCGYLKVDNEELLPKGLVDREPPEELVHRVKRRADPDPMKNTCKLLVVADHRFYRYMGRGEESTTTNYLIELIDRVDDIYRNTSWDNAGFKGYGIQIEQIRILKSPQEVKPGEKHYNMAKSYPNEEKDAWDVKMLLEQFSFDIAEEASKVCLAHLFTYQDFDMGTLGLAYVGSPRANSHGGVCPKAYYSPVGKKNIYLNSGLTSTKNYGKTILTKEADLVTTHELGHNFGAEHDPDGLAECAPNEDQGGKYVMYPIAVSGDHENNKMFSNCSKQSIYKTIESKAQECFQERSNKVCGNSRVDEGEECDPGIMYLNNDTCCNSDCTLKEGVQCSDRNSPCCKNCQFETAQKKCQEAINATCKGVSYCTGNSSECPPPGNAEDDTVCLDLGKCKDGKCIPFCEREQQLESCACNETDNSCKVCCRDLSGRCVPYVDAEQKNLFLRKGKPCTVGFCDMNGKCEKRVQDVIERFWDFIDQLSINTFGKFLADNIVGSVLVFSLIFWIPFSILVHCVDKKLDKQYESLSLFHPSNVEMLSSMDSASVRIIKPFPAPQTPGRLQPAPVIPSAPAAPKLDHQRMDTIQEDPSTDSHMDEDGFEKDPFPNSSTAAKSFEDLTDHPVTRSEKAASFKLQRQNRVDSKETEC
# pIC50 per entry
pIC50 is a log-scale quantity: -log10 of the concentration expressed in molar.

// solved cases for pIC50 follow
INSERT INTO measurements (compound, measure, result_number) VALUES
  ('CC#CCOc1ccc(S(=O)(=O)N2Cc3ccc(C(=O)NC)cc3N(C(C)=O)CC2C(=O)NO)cc1 (stereo not drawn)', 'pIC50', 7.39),
  ('CC#CCOc1ccc(S(=O)(=O)N2Cc3cc(N4CCOCC4)ccc3N(C(C)=O)CC2C(=O)NO)cc1 (stereo not drawn)', 'pIC50', 6.89),
  ('CC#CCOc1ccc(S(=O)(=O)N2Cc3cc(NCCc4ccccn4)ccc3N(C(C)=O)CC2C(=O)NO)cc1 (stereo not drawn)', 'pIC50', 7.31),
  ('CC#CCOc1ccc(S(=O)(=O)N2Cc3ccc(CO)cc3N(C(C)=O)CC2C(=O)NO)cc1 (stereo not drawn)', 'pIC50', 7.92),
  ('CC#CCOc1ccc(S(=O)(=O)N2Cc3ccc(CN(C)C)cc3N(C(C)=O)CC2C(=O)NO)cc1 (stereo not drawn)', 'pIC50', 7.74),
  ('CC#CCOc1ccc(S(=O)(=O)N2Cc3ccc(CNC(C)=O)cc3N(C(C)=O)CC2C(=O)NO)cc1 (stereo not drawn)', 'pIC50', 7.51);

Prompt: Quick check: pIC50 of CC#CCOc1ccc(S(=O)(=O)N2Cc3cc(N(C)CCc4ccccn4)ccc3N(C(C)=O)CC2C(=O)NO)cc1 (stereo not drawn) ?
Response: 6.92

Prompt: Query CC#CCOc1ccc(S(=O)(=O)N2Cc3ccc(CNC)cc3N(C(C)=O)CC2C(=O)NO)cc1 (stereo not drawn) next
Response: 7.85

---

What follows is a collection of pIC50 values obtained with Collagenase 3 (Homo sapiens, UniProt P45452).
pIC50 is a log-scale quantity: -log10 of the concentration expressed in molar.

// solved cases for pIC50 follow
INSERT INTO results (compound, target_or_system, result_number) VALUES
  ('CC#CCOc1ccc(S(=O)(=O)N2Cc3cc(N(C)CCc4ccccn4)ccc3N(C(C)=O)CC2C(=O)NO)cc1 (stereo not given)', 'Collagenase 3 (Homo sapiens, UniProt P45452)', 7.28),
  ('CC#CCOc1ccc(S(=O)(=O)N2Cc3cc(OCCc4ccccc4)ccc3N(C(C)=O)CC2C(=O)NO)cc1 (stereo not given)', 'Collagenase 3 (Homo sapiens, UniProt P45452)', 7.55),
  ('CC#CCOc1ccc(S(=O)(=O)N2Cc3ccc(CN4CCNCC4)cc3N(C(C)=O)CC2C(=O)NO)cc1 (stereo not given)', 'Collagenase 3 (Homo sapiens, UniProt P45452)', 7.77),
  ('CC#CCOc1ccc(S(=O)(=O)N2Cc3ccccc3N(C(=O)c3cnccn3)CC2C(=O)NO)cc1 (stereo not given)', 'Collagenase 3 (Homo sapiens, UniProt P45452)', 7.70);

Now, please, on to the next compound.
Prompt: Write down the reported pIC50 of CC#CCOc1ccc(S(=O)(=O)N2Cc3cc(NCCc4ccccn4)ccc3N(C(C)=O)CC2C(=O)NO)cc1 (stereo not given) , test system: Collagenase 3 (Homo sapiens, UniProt P45452).
Response: 7.33

---

# IC50 per entry
Protein target, amino acids: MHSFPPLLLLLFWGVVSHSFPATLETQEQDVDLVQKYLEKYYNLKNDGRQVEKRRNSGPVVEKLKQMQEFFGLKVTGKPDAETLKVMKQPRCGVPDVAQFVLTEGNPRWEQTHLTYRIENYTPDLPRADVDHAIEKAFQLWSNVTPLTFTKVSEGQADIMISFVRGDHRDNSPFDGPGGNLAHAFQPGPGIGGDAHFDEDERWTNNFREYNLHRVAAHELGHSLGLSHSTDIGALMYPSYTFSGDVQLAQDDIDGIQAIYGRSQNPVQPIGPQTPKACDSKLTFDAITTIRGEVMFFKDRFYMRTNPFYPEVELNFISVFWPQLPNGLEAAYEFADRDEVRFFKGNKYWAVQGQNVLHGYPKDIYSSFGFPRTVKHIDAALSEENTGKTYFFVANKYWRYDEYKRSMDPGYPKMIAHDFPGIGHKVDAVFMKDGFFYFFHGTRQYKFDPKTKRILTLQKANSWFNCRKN
Kindly answer with a numeric value in nM, unit omitted.

INSERT INTO assay_data (compound, units_symbol, result_number) VALUES
  ('CC#CCOc1ccc(S(=O)(=O)N2Cc3ccc(CN4CCNCC4)cc3N(C(C)=O)CC2C(=O)NO)cc1 (stereo unspecified)', 'nM', 483),
  ('CC#CCOc1ccc(S(=O)(=O)N2Cc3ccc(C(=O)NC)cc3N(C(C)=O)CC2C(=O)NO)cc1 (stereo unspecified)', 'nM', 813),
  ('CC#CCOc1ccc(S(=O)(=O)N2Cc3cc(N(C)C)ccc3N(C(C)=O)CC2C(=O)NO)cc1 (stereo unspecified)', 'nM', 682),
  ('CC#CCOc1ccc(S(=O)(=O)N2Cc3ccccc3N(C(=O)COC)CC2C(=O)NO)cc1 (stereo unspecified)', 'nM', 853),
  ('CC#CCOc1ccc(S(=O)(=O)N2Cc3cc(N4CCOCC4)ccc3N(C(C)=O)CC2C(=O)NO)cc1 (stereo unspecified)', 'nM', 1260);

Now, please, on to the next compound.
Prompt: Quick check: IC50 of CC#CCOc1ccc(S(=O)(=O)N2Cc3cc(N4CCN(C)CC4)ccc3N(C(C)=O)CC2C(=O)NO)cc1 (stereo unspecified) ?
Response: 852
